- Target Under Test: human ether-à-go-go-related gene (hERG) potassium channel (human)
- Assay Procedure: primary screen, population patch clamp on CHO cells stably expressing hERG; higher = less effect of the substance
Out of some 310,000 compounds screened, about 14,000 (4.5%) showed an effect of 50% or more. The effect is printed as a negative number. This is one part of a sample in which strong results are shown more often than they occur.
Measured Endpoint: hERG current change (%, negative = inhibition) at 10uM (%)

{"Structure String": "O=C(NCc1ccco1)/C(=C\\c1cccc([N+](=O)[O-])c1)NC(=O)c1ccco1", "Reading": -64.7}
{"Structure String": "O=C(O)CNC(=O)/C(=C\\c1cccc([N+](=O)[O-])c1)NC(=O)c1ccco1", "Reading": 15.7}
{"Structure String": "O=C(NCCO)/C(=C\\c1cccc([N+](=O)[O-])c1)NC(=O)c1ccco1", "Reading": 6.73}
{"Structure String": "O=C(NCCO)/C(=C/c1cccc([N+](=O)[O-])c1)NC(=O)c1ccco1", "Reading": 26.5}
{"Structure String": "NC(=O)c1cc([N+](=O)[O-])c(Cl)cc1NCc1cccnc1", "Reading": -8.53}

====

- Target Under Test: human ether-à-go-go-related gene (hERG) potassium channel (human);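 note: peak tail current of the secondary pulse compared with the same well before compound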
- Assay Procedure: primary screen, population patch clamp on CHO cells stably expressing hERG; higher = less effect of the substance
Among all 310,000 compounds or so, about 14,000 (4.5%) showed an effect of 50% or more. Effects have a minus sign here. Shown is part of a subset that was picked to be rich in strong results.
Recorded hERG current change (%, negative = inhibition) at 10uM values for a group of compounds are listed next.
Measured Endpoint: hERG current change (%, negative = inhibition) at 10uM (%)

{"Compound": "c1ccc2c(c1)CCCN2Cc1nnnn1CC1CCCO1 (stereo not shown)", "Reading": 7.06}
{"Compound": "N#Cc1ccccc1OCC(=O)N(Cc1nnc(-c2ccccc2Cl)o1)C1CC1", "Reading": -48.7}
{"Compound": "O=C1OC(CC(=O)N(Cc2nnc(-c3ccc(Cl)cc3)o2)C2CC2)c2ccccc21 (stereo not shown)", "Reading": -67.8}
{"Compound": "O=C(O)C1CCN(S(=O)(=O)c2ccc(Oc3ccccc3)cc2)CC1", "Reading": 17.8}
{"Compound": "COCCCNC(=S)N1CCN(c2nc(-c3ccccc3)cs2)CC1", "Reading": -5.55}
{"Compound": "COc1ccc2nc(/N=C/c3c(O)n(-c4cccc(Cl)c4)c(=O)[nH]c3=O)sc2c1", "Reading": 2.53}
{"Compound": "CCC(=O)c1ccc(OCC(=O)N(Cc2nnc(-c3ccccc3Cl)o2)C2CC2)cc1", "Reading": -67.2}
{"Compound": "CCCN(Cc1nnc(-c2ccccc2Cl)o1)C(=O)c1oc2ccccc2c1C", "Reading": -13.1}
{"Compound": "CCC(CC)C(=O)Nc1cccc(/C(C)=N/NC(=O)c2ccccc2Cl)c1", "Reading": 6.73}
{"Compound": "COc1ccccc1OCC(=O)N(Cc1nnc(-c2ccccc2Cl)o1)C1CC1", "Reading": -44.2}
{"Compound": "CCCN(Cc1nnc(-c2ccccc2Cl)o1)C(=O)COc1ccc(Cl)cc1", "Reading": -60.5}
{"Compound": "CC(C)O.COC(=O)Nc1ccc2c(c1)N(C(=O)CCN1CCN3CCCC3C1)c1ccccc1CC2.Cl.O (stereo not shown)", "Reading": 1.43}
{"Compound": "Cc1c(C(=O)NCCSCc2ccco2)cccc1[N+](=O)[O-]", "Reading": -5.94}
{"Compound": "CN(c1ccc(C(=O)N2CCOCC2)cc1)S(=O)(=O)c1ccc(Cl)cc1", "Reading": -34.2}
{"Compound": "CSc1cccc(N2CC(C(=O)N(Cc3nnc(-c4ccccc4Cl)o3)C3CC3)CC2=O)c1 (stereo not shown)", "Reading": -55.5}
{"Compound": "COc1ccc(/C(N)=N/OC(=O)c2ccc(C)c([N+](=O)[O-])c2)cc1", "Reading": -6.61}
{"Compound": "COCCNC(=O)CN(c1cccc(OC)c1)S(=O)(=O)c1ccc(C)cc1", "Reading": -12.2}
{"Compound": "O=C(NCc1ccccc1)c1cccc(OCC(=O)N2CCN(C(=O)c3ccco3)CC2)c1", "Reading": -41.1}
{"Compound": "CCOc1ccccc1N1CC(C(=O)N(Cc2nnc(-c3ccccc3Cl)o2)C2CC2)CC1=O (stereo not shown)", "Reading": -16.8}

====

- Target Under Test: human ether-à-go-go-related gene (hERG) potassium channel (human, UniProt Q12809);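 note: peak tail current of the secondary pulse compared with the same well before compound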
- Sequence (Q12809 whole entry, looked up): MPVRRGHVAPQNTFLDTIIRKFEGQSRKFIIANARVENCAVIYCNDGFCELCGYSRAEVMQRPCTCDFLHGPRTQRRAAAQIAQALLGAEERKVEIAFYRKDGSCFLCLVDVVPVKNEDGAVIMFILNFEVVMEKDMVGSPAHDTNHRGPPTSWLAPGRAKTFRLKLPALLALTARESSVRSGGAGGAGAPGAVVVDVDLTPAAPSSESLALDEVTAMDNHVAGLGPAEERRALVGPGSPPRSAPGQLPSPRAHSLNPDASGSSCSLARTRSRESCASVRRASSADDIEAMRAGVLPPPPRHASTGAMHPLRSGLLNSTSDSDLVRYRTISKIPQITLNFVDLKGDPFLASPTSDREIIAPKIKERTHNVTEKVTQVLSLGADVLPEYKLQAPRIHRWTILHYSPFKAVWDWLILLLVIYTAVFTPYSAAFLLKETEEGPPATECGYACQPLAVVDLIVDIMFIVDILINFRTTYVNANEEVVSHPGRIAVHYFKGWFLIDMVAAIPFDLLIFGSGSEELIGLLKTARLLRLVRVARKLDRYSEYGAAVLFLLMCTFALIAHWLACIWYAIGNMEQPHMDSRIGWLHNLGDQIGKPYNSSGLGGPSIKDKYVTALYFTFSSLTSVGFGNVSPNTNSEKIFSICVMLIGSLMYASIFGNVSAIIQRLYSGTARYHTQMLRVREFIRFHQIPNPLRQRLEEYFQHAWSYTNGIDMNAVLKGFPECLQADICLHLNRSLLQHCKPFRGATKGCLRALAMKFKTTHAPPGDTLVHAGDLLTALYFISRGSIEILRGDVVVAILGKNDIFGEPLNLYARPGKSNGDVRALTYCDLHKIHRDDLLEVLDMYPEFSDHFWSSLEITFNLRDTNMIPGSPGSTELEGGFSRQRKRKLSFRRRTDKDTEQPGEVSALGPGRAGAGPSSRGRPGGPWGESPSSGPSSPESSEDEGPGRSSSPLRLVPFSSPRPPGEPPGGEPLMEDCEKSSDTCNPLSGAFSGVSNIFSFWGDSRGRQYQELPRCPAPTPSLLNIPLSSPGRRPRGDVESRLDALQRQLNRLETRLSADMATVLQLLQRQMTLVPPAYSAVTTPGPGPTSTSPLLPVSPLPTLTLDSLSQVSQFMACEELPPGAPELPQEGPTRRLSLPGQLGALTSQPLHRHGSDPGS
- Assay Procedure: primary screen, population patch clamp on CHO cells stably expressing hERG; higher = less effect of the substance
In all, about 310,000 compounds went through this assay and about 14,000 (4.5%) showed an effect of 50% or more. Effects have a minus sign here. For the sample, strong results were picked, then their nearest neighbours and some compounds at random.
# hERG current change (%, negative = inhibition) at 10uM >= 10% gives 1, anything below gives 0

{"Structure String": "O=C(CNC(=O)c1ccccc1)OCCCOC(=O)CNC(=O)c1ccccc1", "Label Class": 1}
{"Structure String": "COC(=O)c1cc2ccsc2n1Cc1nc(-c2ccc(Cl)cc2)oc1C", "Label Class": 0}
{"Structure String": "COc1cc(O)sc1C=Nc1ccc(Cl)cc1", "Label Class": 0}
{"Structure String": "Cc1ccc(NC(=O)c2ccccc2NC(=O)c2cccs2)cc1", "Label Class": 1}
{"Structure String": "COc1ccc(CN(C)C(=O)c2oc3ccccc3c2CSC)cc1F", "Label Class": 1}

====

- Target Under Test: human ether-à-go-go-related gene (hERG) potassium channel (human);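 note: peak tail current of the secondary pulse compared with the same well before compound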
- Assay Procedure: primary screen, population patch clamp on CHO cells stably expressing hERG; higher = less effect of the substance
The whole screen tested about 310,000 compounds, of which about 14,000 (4.5%) showed an effect of 50% or more. The effect is printed as a negative number. What follows is part of a selection rich in strong results, with near analogues and random picks from the rest.
Measured Endpoint: hERG current change (%, negative = inhibition) at 10uM

{"Compound": "Cc1cccc(N2CCN(c3cc(C)nc4nnnn34)CC2C)c1 (stereo not drawn)", "Reading": "-53.1%"}
{"Compound": "O=C(CSc1nnc(NC(=O)c2cccc(Cl)c2)s1)NCC1CCCO1 (stereo not drawn)", "Reading": "20%"}
{"Compound": "CC(=O)N1CCc2cc(S(=O)(=O)CCC(=O)N3CCN(c4ccccc4)CC3)ccc21", "Reading": "7.15%"}
{"Compound": "COc1ccc(CCNCc2ccccc2N2CCCC2)cc1.O=C(O)C(=O)O", "Reading": "-41.8%"}
{"Compound": "COc1ccc(C2c3[nH]c4ccccc4c3CCN2CCCn2cccn2)cc1C (stereo not drawn)", "Reading": "-38.9%"}
{"Compound": "Cc1onc(-c2ccccc2Cl)c1C(=O)Nc1ccc2c(c1)OCO2", "Reading": "10.3%"}
{"Compound": "O=C(Nc1cccc(F)c1)c1cccnc1", "Reading": "3.96%"}
{"Compound": "COc1ccc(OCCCC(=O)NCCc2ccccc2)cc1", "Reading": "-7.79%"}
{"Compound": "Clc1ccc(OCCNCCc2ccccc2)cc1.O=C(O)C(=O)O", "Reading": "-73.7%"}
{"Compound": "COCCCNCCCOc1ccc(C(C)(C)c2ccccc2)cc1.O=C(O)C(=O)O", "Reading": "-19.9%"}
{"Compound": "COCC(C)n1c(-c2ccc3c(c2)NC(=O)CO3)csc1=Nc1ccc(OC(F)F)cc1 (stereo not drawn)", "Reading": "2.76%"}
{"Compound": "O=C(CCCOc1ccc(Cl)cc1)NCCc1ccccc1", "Reading": "5.77%"}
{"Compound": "Cc1ccccc1C1c2[nH]c3ccccc3c2CCN1CCCn1cccn1 (stereo not drawn)", "Reading": "-20.3%"}
{"Compound": "COc1cc(/C=N/Nc2ccc(F)cc2F)cc(OC)c1O", "Reading": "-2.17%"}
{"Compound": "Fc1ccc(C2c3[nH]c4ccccc4c3CCN2CCCn2cccn2)cc1 (stereo not drawn)", "Reading": "-70.1%"}
{"Compound": "COc1ccc(CCNCc2ccncc2)cc1.O=C(O)C(=O)O", "Reading": "-13.7%"}
{"Compound": "COCCNCCCOc1ccc(C(C)(C)c2ccccc2)cc1.O=C(O)C(=O)O", "Reading": "-29.3%"}
{"Compound": "COc1ccc(CCNCc2ccccc2)cc1.O=C(O)C(=O)O", "Reading": "-23.9%"}
{"Compound": "CC(C)(C)C1c2[nH]c3ccccc3c2CCN1CCCn1cccn1 (stereo not drawn)", "Reading": "-19.5%"}
{"Compound": "COc1ccc(CNC(=O)COC(=O)[C@H](Cc2c[nH]c3ccccc23)NC(=O)c2cccs2)cc1", "Reading": "-0.701%"}
{"Compound": "Cc1cccc(N2CCN(c3nnnn3-c3ccccc3)CC2C)c1 (stereo not drawn)", "Reading": "-10.8%"}

====

- Target Under Test: human ether-à-go-go-related gene (hERG) potassium channel (human);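 note: peak tail current of the secondary pulse compared with the same well before compound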
- Assay Procedure: primary screen, population patch clamp on CHO cells stably expressing hERG; higher = less effect of the substance
About 14,000 (4.5%) of roughly 310,000 compounds showed an effect of 50% or more. The effect is printed as a negative number. The list comes from a sample in which strong results are over-represented; it also holds close analogues and randomly drawn compounds.
# hERG current change (%, negative = inhibition) at 10uM >= -40% gives rule met, anything below gives rule not met

{"Structure String": "O=C(O)/C=C/C(=O)N1CCN(c2ccccc2F)CC1", "Label Class": "rule met"}
{"Structure String": "Cc1ccc(N/N=C(\\C#N)C(=N)N2CCCCC2)cc1", "Label Class": "rule not met"}
{"Structure String": "Cc1c(NC(=O)COC(=O)CSc2ccc(C(N)=O)cc2[N+](=O)[O-])c(=O)n(-c2ccccc2)n1C", "Label Class": "rule met"}
{"Structure String": "Brc1cccc(C=Nc2cccc3ncccc23)c1", "Label Class": "rule met"}
{"Structure String": "CN(C)C(=O)Oc1c(Cl)cc(Cl)c2ccccc12", "Label Class": "rule met"}
